Consider the following molecules; for each one, report its surface tension liquid-gas.
# MEASUREMENT CONDITIONS: 313.15 K, Maximal bubble pressure
API: value field is a number in mN/m; no unit string.

Query :: # input molecule: CCCCCn1cc[n+](C)c1.O=C([O-])O [3-methyl-1-pentylimidazolium hydrogen carbonate] ; wanted: its surface tension liquid-gas
Result :: 29.4

Query :: # input molecule: CCCCn1cc[n+](C)c1C.O=S(=O)([O-])O [1-butyl-2,3-dimethylimidazolium hydrogen sulfate] ; wanted: its surface tension liquid-gas
Result :: 43.9

Query :: # input molecule: CCCn1cc[n+](C)c1C.O=S(=O)([O-])O [2,3-dimethyl-1-propylimidazolium hydrogen sulfate] ; wanted: its surface tension liquid-gas
Result :: 46.3

Query :: # input molecule: CCCCC[n+]1ccn(C)c1.O=P([O-])(O)O [1-methyl-3-pentylimidazolium dihydrogen phosphate] ; wanted: its surface tension liquid-gas
Result :: 40.3

====

# MEASUREMENT CONDITIONS: 323.15 K; 101.33 kPa; Liquid; Alternating current cell with electrodes
Entries are grouped by electrical conductivity into these classes: low bin (below 0.4 S/m), mid bin (0.4 S/m to below 0.7 S/m), high bin (0.7 S/m or more)

Query :: Field: class (electrical conductivity) — entry: CCn1cc[n+](C)c1C.O=S(=O)([O-])O [1-ethyl-2,3-dimethylimidazolium hydrogen sulfate]
Result :: mid bin

Query :: Field: class (electrical conductivity) — entry: CCC[n+]1ccn(C)c1.O=P([O-])(O)O [1-methyl-3-propylimidazolium dihydrogen phosphate]
Result :: high bin

Query :: Field: class (electrical conductivity) — entry: CCCCn1cc[n+](C)c1.O=P([O-])(O)O [1-butyl-3-methylimidazolium dihydrogen phosphate]
Result :: high bin

Query :: Field: class (electrical conductivity) — entry: CCCCn1cc[n+](C)c1C.O=S(=O)([O-])O [1-butyl-2,3-dimethylimidazolium hydrogen sulfate]
Result :: low bin

Query :: Field: class (electrical conductivity) — entry: CCCCC[n+]1ccn(C)c1.O=P([O-])(O)O [1-methyl-3-pentylimidazolium dihydrogen phosphate]
Result :: mid bin

Query :: Field: class (electrical conductivity) — entry: CCCCCn1cc[n+](C)c1.O=C([O-])O [3-methyl-1-pentylimidazolium hydrogen carbonate]
Result :: mid bin

Query :: Field: class (electrical conductivity) — entry: CCCCCn1cc[n+](C)c1C.O=S(=O)([O-])O [2,3-dimethyl-1-pentylimidazolium hydrogen sulfate]
Result :: low bin

====

# MEASUREMENT CONDITIONS: 298.15 K; 101.33 kPa; Liquid; Vibrating tube method
Numbers after ± are expanded uncertainties.
OBSERVATION TYPE: mass density

Query :: # input compound: CCCCCn1cc[n+](C)c1C.O=S(=O)([O-])O [2,3-dimethyl-1-pentylimidazolium hydrogen sulfate] ; wanted: its mass density
Result :: 1190.07 ± 4.8 kg/m3

Query :: # input compound: CCCCCn1cc[n+](C)c1.O=C([O-])O [3-methyl-1-pentylimidazolium hydrogen carbonate] ; wanted: its mass density
Result :: 1141.79 ± 4.6 kg/m3

Query :: # input compound: CCCn1cc[n+](C)c1C.O=S(=O)([O-])O [2,3-dimethyl-1-propylimidazolium hydrogen sulfate] ; wanted: its mass density
Result :: 1232.82 ± 5 kg/m3

Query :: # input compound: CCCCn1cc[n+](C)c1C.O=S(=O)([O-])O [1-butyl-2,3-dimethylimidazolium hydrogen sulfate] ; wanted: its mass density
Result :: 1210.61 ± 4.9 kg/m3

Origin of measurements: the NIST ThermoML archive (doi:10.1021/acs.jced.5b00860)
